tested on: Plasmodium berghei; experiment: Screen against P. berghei liver stage (PbLuc), transformed with Luciferase, at 10uM; assay type: functional, HepG2; settings: tested at 10 uM
In all, about 69,000 compounds went through this assay and about 8,600 (12%) showed an effect of 50% or more. The sample as a whole holds a higher share of strong results than the screen did.
Definition: the class of an entry is the range in lower bin: < 10%; middle bin: ≥ 10% and < 50%; upper bin: ≥ 50% that contains its INHIBITION.

Examples with answers:
Class (by measured INHIBITION) for CN(Cc1noc(-c2ccccc2)n1)C(=O)CSc1nnc(N)s1
middle bin

Form: Item = COc1ccc(C2=Nn3c(CCCN)nnc3-c3ccccc3C2)cc1 ; Class = ?
middle bin

For this compound, which bin applies? Cc1c(C(=O)N(CCN(C)C)Cc2ccccn2)oc2ccccc12
upper bin

Any idea which band O=c1nc(CNc2ccccc2)[nH]n1Cc1ccccc1 is in?
lower bin

For this compound, which bin applies? CC(CNC(=O)N1CCN(CC(F)F)CC1)Cc1cccs1 (stereo not given)
lower bin

---
Kindly identify the class of Cc1cc(C(F)(F)F)nn1CC(C)C(=O)Nc1cccnc1 (stereo not given) .
middle bin

Hi, small favor: classify CC(NC(=O)N1CCCN(CC(F)F)CC1)c1ccco1 (stereo not given) by its INHIBITION when you get a moment.
upper bin

# classify by INHIBITION band: Cc1ccc(CN2CCc3c(CN(C)C)n[nH]c3C2)s1
middle bin

Class? Entry: CC(=O)N1CCCN(C(=O)NC(C)c2ccc(C)o2)CC1 (stereo not given)
middle bin

For CN(C(=O)c1ccnn1C)[C@@H]1CCC[C@@H](Oc2ccccc2)[C@@H]1O , which INHIBITION bin applies?
middle bin

# classify by INHIBITION band: CNC(=O)[C@@H]1CN(C(=O)C(C)C)C[C@H]1c1ccnc(N2CCCC2)n1
middle bin

Place this compound in its band: COc1ccc(C2=Nn3c(CN)nnc3-c3ccccc3C2)cc1
upper bin

Classify this compound: Cc1cc(C(=O)N(C)Cc2cccs2)nc(N2CCCC2)n1
lower bin

----------
tested on: Plasmodium berghei; experiment: Screen against P. berghei liver stage (PbLuc), transformed with Luciferase, at 10uM; format: functional, HepG2; details: tested at 10 uM
Hit rate of the full screen: of about 69,000 compounds, about 8,600 (12%) showed an effect of 50% or more. The entries come from a sample that favours strong results as a whole.
endpoint: INHIBITION

INHIBITION for Clc1ccccc1C1(c2ccnc(C3CCCC3)n2)CCNCC1 ?
94.4%

More entries:
Field request: INHIBITION | item: CCN(Cc1ccco1)C(C)c1nc(C)no1 (centres undefined)
-97.2%

Dear colleague, I am looking for the recorded INHIBITION of the following compound: COc1cccc(-c2ccnc(C3CCNCC3)c2)c1
-23.8%

Recorded INHIBITION of CCc1nc(CN2CCCN(c3cnc4ccccc4n3)CC2)no1 , please.
40.5%

----------
tested on: Plasmodium berghei; experiment: Screen against P. berghei liver stage (PbLuc), transformed with Luciferase, at 10uM; assay type: functional, HepG2; settings: tested at 10 uM
The whole screen tested about 69,000 compounds, of which about 8,600 (12%) showed an effect of 50% or more. The list comes from a sample in which strong results are over-represented; it also holds close analogues and randomly drawn compounds.
Quick reference: INHIBITION of the listed items.
Please respond with the number in % and leave the unit unwritten.

Some solved cases for reference:
Query (molecule): Cc1nc(-c2nnc[nH]2)sc1C(=O)N1CCCC(C(F)(F)F)C1 (stereo not drawn) ; field requested: INHIBITION
7.25

Entry CC(c1ccccn1)N(C)Cc1ccc(CCC(C)(C)O)cc1 (stereo not drawn) : reported INHIBITION = ?
36.6

Any idea what INHIBITION was measured for COc1ccc(Cl)cc1NC(=O)CN1CCc2nc(NC(C)=O)sc2C1 ?
30.2

Could you share which INHIBITION value was measured for CCC(=O)N1CCCc2c(cnn2C)C1 ?
-5.452

Others:
So what does the record say about INHIBITION for O=C(c1csc2nc(-c3ccc(Cl)cc3)cn12)N1CCCC(CO)C1 (stereo not drawn) ?
-16.6

Request the reported INHIBITION associated with CSc1nccn1-c1cccc(C(=O)NCC(F)(F)F)c1
18.2

Need INHIBITION, item Cc1cnn(CC(C)NCc2ccccc2OCc2cccnc2)c1 (stereo not drawn)
13.3

I have this molecule here, CN1CCN(C(=O)c2ncn3c2CNS(=O)(=O)c2ccccc2-3)CC1 , and I need its recorded INHIBITION.
15.3

----------
system: Plasmodium berghei; assay: Screen against P. berghei liver stage (PbLuc), transformed with Luciferase, at 10uM; assay type: functional, HepG2; conditions: tested at 10 uM
The campaign covered roughly 69,000 compounds. About 8,600 (12%) showed an effect of 50% or more. What follows is part of a selection rich in strong results, with near analogues and random picks from the rest.
endpoint: INHIBITION (%)
Answer format: numeric, % implied, no suffix.

These recorded examples may help you get a feel for the data.
Checklist item: INHIBITION tested on Plasmodium berghei, entry CC1(C)CC(N(Cc2cccnc2)Cc2cccnc2)CC(C)(C)N1 , value?
64.9

# query: INHIBITION | item O=C1NCC2(CCCN(Cc3ccc(F)cc3)C2)Oc2ccccc21 (stereo not drawn) | system: Plasmodium berghei
46

Report INHIBITION for CC(C)CCn1nc(CNc2ccc(Br)cc2)nc1O tested on Plasmodium berghei.
44.9

Short answer please: INHIBITION, Plasmodium berghei, entry Cc1cccc(CN(Cc2cccnc2)C2CC(C)(C)NC(C)(C)C2)n1
35.2

Lab request: please report INHIBITION under test system Plasmodium berghei for Cc1cc(CN(CCCO)c2ccccc2)on1
56.5

Notebook: pull reported INHIBITION for Plasmodium berghei, entry COCCN1CC2(CCN(C(=O)c3ccno3)CC2)c2ccccc21
-14.7

Field: INHIBITION (Plasmodium berghei). Entry: Cn1cc(C2CCCN2Cc2cscn2)cn1 (stereo not drawn)
42

Shifting focus to the compound that follows.
Could you share what INHIBITION was measured for Cc1cccc(-c2nc(N)nc3c2CN(C(=O)c2ccncn2)C3C)c1 (stereo not drawn) , tested on Plasmodium berghei?
19.9

----------
test system: Plasmodium berghei; assay: Screen against P. berghei liver stage (PbLuc), transformed with Luciferase, at 10uM; format: functional, HepG2; conditions: tested at 10 uM
In all, about 69,000 compounds went through this assay and about 8,600 (12%) showed an effect of 50% or more. Only a selection was taken, and strong results are over-represented in it overall.
Lab note: anything with INHIBITION at or over 30% counts as Yes; the rest go in No.

Recorded results for 3 molecules are shown here.
Determine whether this molecule has INHIBITION no lower than 30%: CS(=O)(=O)N[C@@H]1CCN(Cc2cccnc2)[C@H]1Cc1cccnc1
Yes

Please check the record CN(CCc1noc(C2CC2)n1)C(=O)CCc1cc2n(n1)CCCNC2 and state if its INHIBITION is at or above 30%.
Yes

Item CS(=O)(=O)N[C@@H]1CCN(Cc2ccncc2)[C@H]1Cc1cccnc1 with INHIBITION of 30% or above?
No

---
Evaluate CNc1ncc(CN(C)Cc2cc3n(n2)CCNC3)cn1 : INHIBITION at minimum 30%?
No

Hi team, for COCCN1CCOCC2(CCCN(Cc3cccc(F)c3)C2)C1 (configuration not stated) , is the recorded INHIBITION at or above 30%?
Yes

For this molecule, is measured INHIBITION 30% or higher? O=C(c1cccnc1)N1CCC2(CC1)CCN(c1ccsc1)C2=O
No

Tell me whether INHIBITION is at least 30% here: CCn1cc2[nH]c(OC)c(CNC(=O)C3CCCN(C)C3)cc-2c1=O (configuration not stated)
Yes

----------
test system: Plasmodium berghei; assay: Screen against P. berghei liver stage (PbLuc), transformed with Luciferase, at 10uM; format: functional, HepG2; conditions: tested at 10 uM
Out of some 69,000 compounds screened, about 8,600 (12%) showed an effect of 50% or more. This excerpt belongs to a sample that is enriched for strong results.
// label = YES if INHIBITION is not less than 20%, otherwise NO

// inclusive: INHIBITION at least 20%? input: Cc1nc([C@@H]2C[C@H]3CN(Cc4scnc4C)C[C@H]3O2)no1
NO

State whether the measured INHIBITION reaches 20%, counting equality as reaching it, for Cc1cc2ncn(C(=O)N3CCCC3)c2cc1C
YES

Can CCc1ccc(C(C)NC(=O)CCc2nc(-c3nnc[nH]3)no2)cc1 (stereo not given) be said to have INHIBITION at or above 20%?
YES

Decide: is the reported value of INHIBITION for CCC(C)c1csc(NC(=O)Cc2csc(-c3nnc[nH]3)n2)n1 (stereo not given) equal to or greater than 20%?
YES

Could you verify whether the entry Cn1ccnc1C(=O)N[C@@H]1CN(Cc2cccs2)[C@@H]2CCCO[C@@H]21 shows INHIBITION of no less than 20%?
YES
